src = PubChem BioAssay AID624344

Measured IC50 of individual entries
# Test summary: NFkB reporter suppression in cystic fibrosis bronchial cells – cell-based, uHTS hits, panel, cytotoxicity readout, dose response (AID 624344)
# Run conditions: CF bronchial epithelial cells, PAF-induced NFkB reporter inhibition; with PAF, mean of runs

The recorded IC50 for entry COc1ccc(OC)c(-c2nnc3n2N=C(c2ccc(OC)c(OC4CCOC4)c2)CS3)c1 (stereo not given) equals 1.71 µM

Value of IC50 reported for the molecule `c1nc(N2CCOCC2)c2c3c(sc2n1)CCCC3` is 6.88 µM

// sample `Cc1ccccc1S(=O)(=O)Cc1ccc(C(=O)N2CCN(c3cccc(C)c3C)CC2)o1` , its IC50 was 11 µM

Form field IC50, entry `C=C(C)COc1ccc(-c2[nH]ncc2-c2ccc(OC)cc2)c(O)c1` : 5.07 µM

Item: `CCOc1ccc(-n2cc(-c3ccccc3)c3c(N4CCOCC4)ncnc32)cc1` | IC50: 3.99 µM
